Measured half-life values are reported for all entries that follow.
assay: Pharmacokinetics in whole blood; format: in vivo, mouse (CD-1); conditions: mouse, in vivo, ip, 40 mg/kg, females; 40 mg/kg i.p. single dose, whole blood; read-out: t1/2 (3-12 h) (half-life) (converted)
Kindly answer with a numeric value in h, unit omitted.

C=CCC1C=C(C)CC(C)CC(OC)C2OC(O)(C(=O)C(=O)N3CCCCC3C(=O)OC(C(C)=CC3CCC(O)C(OC)C3)C(C)C(O)CC1=O)C(C)CC2OC (centres unmarked) [FK506, reference compound]	1.35

molecule CC[C@@H]1/C=C(\C)C[C@H](C)C[C@H](OC)[C@H]2O[C@@](O)(C(=O)C(=O)N3CCCC[C@H]3C(=O)O[C@H](/C(C)=C/C3CC[C@@H](O)[C@H](OC)C3)[C@H](C)[C@@H](O)C/C1=N/NC(=O)OC)[C@H](C)C[C@@H]2OC (some centres unmarked) [JH-FK-08] , half-life observed: 1.14

###

Measured CL/F values are reported for all entries that follow.
assay: Pharmacokinetics in whole blood; assay type: in vivo, mouse (CD-1); conditions: mouse, in vivo, ip, 40 mg/kg, males; 40 mg/kg i.p. single dose, whole blood; read-out: CI/F (clearance as Dose/AUCINF) (converted)
Kindly answer with a numeric value in mL/min/kg, unit omitted.

CC[C@@H]1/C=C(\C)C[C@H](C)C[C@H](OC)[C@H]2O[C@@](O)(C(=O)C(=O)N3CCCC[C@H]3C(=O)O[C@H](/C(C)=C/C3CC[C@@H](O)[C@H](OC)C3)[C@H](C)[C@@H](O)C/C1=N/NC(=O)OC)[C@H](C)C[C@@H]2OC (some centres unmarked)	46.4

Then there is this compound:
compound C=CCC1C=C(C)CC(C)CC(OC)C2OC(O)(C(=O)C(=O)N3CCCCC3C(=O)OC(C(C)=CC3CCC(O)C(OC)C3)C(C)C(O)CC1=O)C(C)CC2OC (centres unmarked) [FK506, reference compound] , CL/F observed: 49.4

###

test system: IL-2 expression in primary mouse CD4+ T cells (mammalian calcineurin); assay: In vitro immunosuppressive activity, IL-2 expression (Example 3); type: cell-based; conditions: 72 h
quantity: pIC50
Lab note — pIC50 values are minus log10 of concentrations in M.

molecule CC[C@@H]1/C=C(\C)C[C@H](C)C[C@H](OC)[C@H]2O[C@@](O)(C(=O)C(=O)N3CCCC[C@H]3C(=O)O[C@H](/C(C)=C/C3CC[C@@H](O)[C@H](OC)C3)[C@H](C)[C@@H](O)C/C1=N/NC(=O)OC)[C@H](C)C[C@@H]2OC (some centres unmarked) , pIC50 observed: 7.37

###

Measured Tmax values are reported for all entries that follow.
experiment: Pharmacokinetics in whole blood; assay type: in vivo, mouse (CD-1); details: mouse, in vivo, ip, 40 mg/kg, males; 40 mg/kg i.p. single dose, whole blood
Kindly answer with a numeric value in h, unit omitted.

CC[C@@H]1/C=C(\C)C[C@H](C)C[C@H](OC)[C@H]2O[C@@](O)(C(=O)C(=O)N3CCCC[C@H]3C(=O)O[C@H](/C(C)=C/C3CC[C@@H](O)[C@H](OC)C3)[C@H](C)[C@@H](O)C/C1=N/NC(=O)OC)[C@H](C)C[C@@H]2OC (some centres unmarked) [JH-FK-08]	1.25

compound C=CCC1C=C(C)CC(C)CC(OC)C2OC(O)(C(=O)C(=O)N3CCCCC3C(=O)OC(C(C)=CC3CCC(O)C(OC)C3)C(C)C(O)CC1=O)C(C)CC2OC (centres unmarked) [FK506, reference compound] , Tmax observed: 0.75
